Listing of entries alongside the reported Ibalizumab ELISA binning signal.
system_name: T1, huCD4-HIS (human, UniProt P01730 26-390, limits assumed)
T1 construct: not shown: HIS tag
protocol_description: ELISA binning; competitor ibalizumab; 100 ng/mL huCD4-HIS, anti-HIS HRP detection; background 45, max binding 3000000
property_name: Ibalizumab ELISA binning signal

[[record]]
binder = "75110_11D03A (antibody, V domains shown, Tested here as non-clonal hybridoma supernatant from AlivaMab Mouse Kappa mice (detected with anti-mouse Fc and anti-human kappa)) VH: EVQLVESGGGLVQPGGSLRLSCAASGFTFSSYWMSWVRQAPGKGLEWVANINQDGNEKYYVDSVKGRFTISRDNAKNSLFLQMNSLRAEDTAVYYCAREGGQWLALDYWGQGALVTVSS VL: DIQMTQSPSSVSASVGDRVTITCRASQGISSWLAWYQQKPGKAPKFLISGASSLQSGVPSRFSGSGSGTDFTLTISSLQPEDFATYYCQQANSFPWTFGQGTKVEIK"
result = "1.63e+06"

[[record]]
binder = "75110_04B08A (antibody, V domains shown, Tested here as non-clonal hybridoma supernatant from AlivaMab Mouse Kappa mice (detected with anti-mouse Fc and anti-human kappa)) VH: QVQLVESGGGVVQPGRSLRLSCTASGFNFINYGIHWVRQAPGKGLEWVTIIWYDGSKKYYADSVKGRFAISRDNSKNTLYLQMNSLRAEDTAVYYCAREDDWNDGLAYWGQGTLVTVSS VL: AIQMTQSPSSLSASVGDRVTITCRASQDIRNDLGWYQQKPGKAPNLLIYAASNLQSGVPSRFSGSGSGTDFTLTISSLQPEDFATYYCLQDSNYPRTFGQGTKVEIK"
result = "1.95e+06"

[[record]]
binder = "75110_09G15A (antibody, V domains shown, Tested here as non-clonal hybridoma supernatant from AlivaMab Mouse Kappa mice (detected with anti-mouse Fc and anti-human kappa)) VH: EVQLVESGGGLVQPGGSLRLSCAASGFTFSDYWMSWVRQAPGKGLEWVANINQDGSEKYSVDSVKGRFTISRDNAKNSLYLQMNSLRAEDTAIFYCAREGGQWLALDYWGQGTLVTVSS VL: DIQMTQSPSSVSASVGDRVTITCRASQGISSWLAWYQQKPGKAPKLLIYGASSLQSGVPSRFSGSGSGTDFTLTINSLQPEDFTTYYCQQANIFPWTFGQGTKVEIK"
result = "1.99e+06"

[[record]]
binder = "75110_03C01A (antibody, V domains shown, Tested here as non-clonal hybridoma supernatant from AlivaMab Mouse Kappa mice (detected with anti-mouse Fc and anti-human kappa)) VH: QVQLQQWGAGLLKPSETLSLTCAVYGGSFSGYYWSWIRQSPGKGLEWIGEINQSGSTNYNPSLKSRVTISVDTSKDQFSLKLSSVTAADTAVYYCARVINWFDSWGQGSLVTVSS VL: DIQMTQSPSSVSASVGDRVTITCRASQGISSWLAWYQQKPGNAPKLLIYDASSFQSGVPSRFSGSGSGTDFTLTISSLQTEDFATYYCQQANSFPYTFGQGTKLEIK"
result = 865000


The origin of these recorded values is patent US20220112288A1.
